Numbers sourced from patent US20030068675.

ASSAY_SYSTEM: ZFP SBS#830 (synthetic)
Sequence (chain, as listed by the source): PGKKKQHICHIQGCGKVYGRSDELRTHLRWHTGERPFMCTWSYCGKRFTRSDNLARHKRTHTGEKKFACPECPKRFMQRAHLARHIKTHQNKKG
RUN_DESCRIPTION: EMSA
MEASUREMENT_CONDITIONS: tags: MBP fusion
ASSAY_METRIC: pKd
Hey, just a heads up that pKd is the negative log base 10 of the concentration in molar.

Query: pKd; subject: GGAGAGTCGG (dsDNA) DNA 1: GGAGAGTCGG DNA 2: CCGACTCTCC
6.17
